Target or system Carbonic anhydrase 2 (Homo sapiens); metric log10 Ki; compiled from varied reports.
Transform log10 | Measure Ki | Unit nM

Some compounds with recorded log10 Ki:
compound | system name | log10 Ki
CCCC(=O)/C(=N/Nc1cccc(-n2nc(C(=O)Nc3nnc(S(N)(=O)=O)s3)c(C(=O)Nc3nnc(S(N)(=O)=O)s3)c2-c2ccccc2)c1)C(=O)OCC | Carbonic anhydrase 2 (Homo sapiens) | 2.95
CC(C)OC(=O)c1cc(O)cc(O)c1 | Carbonic anhydrase 2 (Homo sapiens) | 2.85
COc1ccc(C(N)=O)cc1 | Carbonic anhydrase 2 (Homo sapiens) | 3.34

Value sought for every listed compound: log10 Ki.
1. N=C(N)NCCCC(/N=C(\S)Nc1ccc(S(N)(=O)=O)cc1)C(=O)O (stereo not given)
2. NS(=O)(=O)OCc1ccccc1

Ans.
1: 1.18; 2: 0.53

====

Several reports have described log10 Ki for Carbonic anhydrase 2 (Homo sapiens); a selection of those results is presented here.
Quick note: numbers are log10 of Ki, with µM as the unit.

entry smiles | log10 Ki
CNCc1cc2cc(S(N)(=O)=O)oc2s1 | -1.49
C[C@H](CCC(=O)Nc1ccc(S(N)(=O)=O)cc1F)[C@H]1CC[C@H]2[C@@H]3[C@@H](O)C[C@@H]4C[C@H](O)CC[C@]4(C)[C@H]3CC[C@]12C | -1.96
CC(=O)Nc1ccc(S(=O)(=O)NCCc2ccc(S(N)(=O)=O)cc2)cc1 | -1.12
CC(C)c1ccccc1-c1ccc(S(N)(=O)=O)cc1 | -3.01
Oc1ccc(Cc2ccc(O)c(O)c2)cc1O | 0.75

Turning to the following compound.
Qu. State its log10 Ki: C[C@]12CC[C@@H]3c4ccc(CS(N)(=O)=O)cc4CC[C@H]3[C@@H]1CCC2=O
Ans. -1.10

====

Record set: pKi | Carbonic anhydrase 2 (Homo sapiens, UniProt P00918) | literature, multiple sources.
Answers are plain numbers, as −log10 of the molar value.

These solved cases illustrate the format of a correct answer.
entry smiles | pKi
C[C@H](CCC(=O)OCCOc1ccc2nc(S(N)(=O)=O)sc2c1)[C@H]1CC[C@H]2[C@@H]3CC[C@@H]4C[C@H](O)CC[C@]4(C)[C@H]3CC[C@]12C | 8.85
COc1ccc(S(=O)(=O)NO)cc1 | 7.29

Qu. Identify the reported pKi for the following entry. Nc1ccc(S(=O)(=O)Nc2nnc(S(N)(=O)=O)s2)cc1Cl
Ans. 9.22

====

Here is a set of compounds with reported log10 of Ki for Carbonic anhydrase 2 (Homo sapiens, UniProt P00918), compiled from the literature.
Please note: log10 values; quantity Ki; unit nM.

# example entries with known answers
compound | log10 of Ki
O=C(CN(Cc1ccc([N+](=O)[O-])cc1)S(=O)(=O)c1c(F)c(F)c(F)c(F)c1F)NO | 2.03
CC(C(=O)NO)N(Cc1ccccc1[N+](=O)[O-])S(=O)(=O)c1c(F)c(F)c(F)c(F)c1F (centres undefined) | 2.20
CCC(=O)OC[C@H]1O[C@@H](n2cc(-c3ccc(S(N)(=O)=O)cc3)nn2)[C@H](OC(=O)CC)[C@@H](OC(=O)CC)[C@@H]1OC(=O)CC | 1.85

Record log10 of Ki for all entries; do not skip any.
1. O=C(Nc1nnc(S)s1)c1c(F)c(F)c(F)c(F)c1F
2. Cc1cccc(C(=O)NCc2ccc(S(N)(=O)=O)cc2)c1

Ans.
5.11
0.52
